Molecular target: T1, terbium-labelled SNAP-CXCR4 on HEK-293 cells (Cisbio C1TT1CXCR4) (human, UniProt P61072 1-352 (Pan troglodytes entry), terbium label on the SNAP tag)
T1 construct: Bought assay-ready cells; also called CXCR4 expressing cells; not shown: SNAP tag
T1 sequence (P61072 whole entry): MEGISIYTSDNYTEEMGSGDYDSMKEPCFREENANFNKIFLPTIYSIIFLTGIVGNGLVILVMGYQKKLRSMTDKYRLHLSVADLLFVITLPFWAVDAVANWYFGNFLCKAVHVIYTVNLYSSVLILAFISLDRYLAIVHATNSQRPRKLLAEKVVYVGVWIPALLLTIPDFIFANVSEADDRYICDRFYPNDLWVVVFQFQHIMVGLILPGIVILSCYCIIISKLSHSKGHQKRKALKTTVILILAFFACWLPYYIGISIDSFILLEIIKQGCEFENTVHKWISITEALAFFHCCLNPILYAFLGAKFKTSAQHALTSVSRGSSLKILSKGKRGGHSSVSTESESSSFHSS
Assay: TR-FRET (Tag-lite) competition with AlexaFluor 647-CXCL12 on terbium-labelled SNAP-CXCR4 HEK-293 cells
readout type: % Max Inhibition (%)
The answer is to be given in %; state only the numeric part.

# binder, unit name, % Max Inhibition
records = [
    ("CL-82658 (antibody, human IgG4 S228P, kappa, V domains shown, Tested in human IgG4-PE format; also called CL-82658 (IgG4-PE format)) VH: QVQLVESGGGVVQPGRSLRLSCAASGFSFSSYGMHWVRQAPGKGLEWVAVISYDGSNKYYADSVKGRFTISRDNSKNTLYLQMNSLRGEDTAVYYCSKGSLTPRRGYYYSYGMDVWGQGTTVTVSS VL: DIQMTQSPSSLSASVGDRVTITCRASQGIRNDLSWYQQKPGKAPKRLIYAASSLQSGVPSRFSGSGSGTEFTLTISSLQPEDFATYYCLQHNGYPFTFGPGTKVDIKR", "%", 100),
]

Please find the next binder below.
Identify the reported % Max Inhibition for the following entry. CL-82495 (antibody, human IgG4 S228P, kappa, V domains shown, Tested in human IgG4-PE format) VH: QVQLVESGGGVVQPGRSLRLSCEASGFTLSSYGMHWVRQAPGKGLEWVAVIWNDGSNKYSADSVKGRFTISRDNSKNTLYLQMNRLRAEDTAVYYCARGGGYYGSGSHYRGYYYYGMDVWGQGTTVTVSS VL: DIQMTQSPSSLSASVGDRVTITCRASQGIRNDLGWYQQKPGKAPKRLIYAASSLQSGVPSRFSGSGSGTEFTLTISSLQPEDFATYYCLQHNSYPWTFGQGTKVEIKR
100
